protocol-summary: S6 kinase pathway phospho-S6 level changes – cell-based, A549, cytoblot, luminescence, serum-stimulated, primary screen (AID 1158);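 further: serum-stimulated A549 lung adenocarcinoma cells; signal is phosphorylated S6 detected by cytoblot immunostaining with HRP secondary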
reported-conditions: 5 h, higher = more signal
Note to self: values exactly at 0.1 are Condition met. So z-score at or above 0.1 is Condition met, below is Condition not met.

Known results for compounds:
compound: O=C1C2C=CC(C(O)c3ccco3)N(Nc3ccccc3F)C2C(=O)N1c1ccccc1 (configuration not stated)
discrete-label: Condition not met

compound: O=C(NCCN1CCOCC1)[C@@H]1c2ccccc2C(=O)N(Cc2ccccc2Cl)[C@H]1c1ccc(CO)cc1
discrete-label: Condition not met

compound: [N-]=[N+]=Nc1ccccc1C[C@@]1(C(=O)NCCN2CCOCC2)N=C(c2ccc(OCCCO)cc2)O[C@@H]1c1ccccc1N=[N+]=[N-]
discrete-label: Condition not met

compound: COc1cccc(C)c1NC(=O)O[C@H]1[C@H](OC(=O)Nc2ccc3c(c2)OCO3)[C@@H](OC(=O)Nc2ccc3c(c2)OCO3)[C@@H](OC)O[C@@H]1CO
discrete-label: Condition not met

compound: CN1C(=O)C2C=CC(C(O)c3cccn3C)N(Nc3ccc([N+](=O)[O-])cc3[N+](=O)[O-])C2C1=O (configuration not stated)
discrete-label: Condition not met

Given the entry COc1cc2c(cc1O)C=[N+](Cc1sc3ccccc3c1Cl)CC2 , answer whether its z-score meets or surpasses 0.1. Condition not met

====

protocol-summary: inhibition of PAO1 biofilm formation – strain PAO1, LB-PBS medium, absorbance 600 nm, primary screen (AID 1176); further: test concentration not given here
reported-conditions: P. aeruginosa PAO1 growth/biofilm, A600, 12 h; higher = more signal
endpoint-label: z-score
Please give only the number in your answer, with no unit.

As a guide, the following entries are already answered.
compound: Oc1ccc2cc[n+](Cc3cc4c(cc3Br)OCO4)cc2c1
z-score: -0.159
--
compound: N#Cc1ccc(NN2C(C(O)c3ccc(Br)cc3)C=CC3C(=O)N(c4ccccc4)C(=O)C32)cc1 (configuration not stated)
z-score: 0.819
--
compound: COCCOC(=O)N1C(=O)[C@@]2(c3cc(C#CCC(C(=O)OC)C(=O)OC)ccc31)[C@H](c1ccc(OCCO)cc1)N1[C@H](c3ccccc3)[C@H](c3ccccc3)OC(=O)[C@H]1[C@@H]2C(=O)N1CCc2cc(OC)c(OC)cc2C1
z-score: 2.25
--
compound: C=C(C(=O)CC[C@H](OC(=O)c1ccccc1-c1ccccc1C(=O)O)c1cccc(OCCO)c1)C(C)C
z-score: 0.804
--
compound: CCOC(=O)C[C@H]1[C@H](OC(=O)c2ccc(-c3ccccc3)cc2)[C@@H](NC(=O)CC(C)C)c2cc(OCCCO)ccc2N1C(=O)c1ccc2ccccc2n1
z-score: -0.382

Would you kindly look at the next entry?
What does the record list as z-score for CCOC(=O)C[C@H]1[C@H](OC(=O)c2cc3ccccc3oc2=O)[C@@H](NC(=O)CC(C)C)c2cc(OCCCO)ccc2N1C(=O)c1ccc2ccccc2n1 ? 0.555

====

protocol-summary: growth effects on S. cerevisiae YJM789 – YJM789 clinical isolate, OD600, 24 h, basal, primary screen (AID 1089);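 further: growth of clinical yeast isolate S. cerevisiae YJM 789 seeded 1000 cells per well; test concentration not given here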
reported-conditions: higher = more signal, called active from +8 up or from −8 down
endpoint-label: z-score
Please give only the number in your answer, with no unit.

As a guide, the following entries are already answered.
compound: COC(=O)C1=CC(CCCO)=CC(c2cccs2)N(Cc2cccc(OC(F)(F)F)c2)C=C1C(=O)OC (stereo unspecified)
z-score: -1.07
--
compound: Cc1ccc(F)cc1S(=O)(=O)N[C@@H]1CCN(Cc2ccc(Br)cc2)C1
z-score: -1.47
--
compound: COCCCNC(=O)[C@@H]1c2ccccc2C(=O)N(C(C)C)[C@H]1c1ccc(CO)cc1
z-score: 0.602
--
compound: COc1ccc(CCNC(=O)[C@@]2(Cc3ccccc3I)c3ccccc3C(=O)N(C3CCCCC3)[C@H]2c2ccc(CO)cc2)cc1
z-score: -2.01
--
compound: CCN(CC)c1ccc(N2CC=CC34O[C@@H]5/C=C\CCCOC(=O)C5[C@H]3C(=O)N(C(C)CO)[C@@H]4C2=O)cc1 (stereo partly specified)
z-score: -0.991

What does the record list as z-score for C=CC[C@@]1(C(=O)NCCCOC)N=C(c2ccc(OCCCO)cc2)O[C@@H]1c1ccccc1N=[N+]=[N-] ? 0.339

Same question for O=C1OCCC=C[C@H]2OC34C=CCN(c5ccc6ccccc6c5)C(=O)[C@H]3N(CCCO)C(=O)[C@@H]4C12 (stereo partly specified) please. 0.312

Same question for CCOC(=O)C1=CC[C@@H](c2ccccc2F)N(S(=O)(=O)c2ccc(C)cc2)[C@H]1c1ccccc1 please. -0.0047

Same question for CC1CC/C=C\[C@H]2OC34C=CCN(C(C)C)C(=O)[C@H]3N(CCO)C(=O)[C@@H]4C2C(=O)O1 (stereo partly specified) please. 0.114

Same question for COCCOC(=O)N1C(=O)[C@@]2(c3cc(C#CC4(O)CCCCCC4)ccc31)[C@H](C(=O)Nc1nc3ccccc3s1)[C@H]1C(=O)O[C@H](c3ccccc3)[C@H](c3ccccc3)N1[C@@H]2c1ccc(O)cc1 please. 0.806

====

protocol-summary: probe aEGFR binding to arrayed compounds – biochemical, biotinylated probe, 635/667 nm fluorescence, primary screen (AID 1097);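 further: probe is a biotinylated anti-EGFR antibody binding compounds printed on slides; score combines fluorescence near 667 nm and signal to noise of each spot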
reported-conditions: small-molecule microarray, higher = more signal
Reported composite z-score maps to class as: 1: < -0.2; 2: ≥ -0.2 and < -0.004; 3: ≥ -0.004

molecule: CC(C)N1CC=CC23O[C@@H]4C=CCCOC(=O)C4[C@H]2C(=O)N(CCCO)[C@@H]3C1=O (stereo not given in full)
discrete-label: 1
--
molecule: CCOC(=O)C[C@H]1[C@H](OC(=O)c2ccccc2-c2ccccc2)[C@@H](NC(=O)c2ccc3ccccc3n2)c2cc(OCCCO)ccc2N1C(=O)Cc1ccc(OC)cc1
discrete-label: 2
--
molecule: C=C(COC)/C(=C/C[C@H](OC(=O)c1ccncc1)c1ccccc1OCCO)c1cc(C(=O)OC)ccc1OC
discrete-label: 3
--
molecule: CC(=O)NCCCC[C@@H]1NC(=O)[C@@H]2C[C@H](C(=O)NCCCCCN)[C@H](c3cccc(OCCO)c3)N2C1=O
discrete-label: 3
--
molecule: COc1ccc(CCNC(=O)[C@@]2(Sc3ccc(C)cc3)CC(=O)N(Cc3ccccc3C(F)(F)F)[C@@H]2c2ccc(CO)cc2I)cc1
discrete-label: 1

Returns: class label. Input: CC(=O)NCCCC[C@@H]1NC(=O)[C@@H]2C[C@H](C(=O)NCCCCCN)[C@H](c3ccc(O)cc3)N2C1=O 3

Same question for CN1C(=O)C2C=CC(C(O)c3cccn3C)N(Nc3ccc([N+](=O)[O-])cc3[N+](=O)[O-])C2C1=O (stereo not given) please. 3

Same question for CC(C)NC(=O)[C@@]1(c2ccc([N+](=O)[O-])cc2)CC(=O)N(C2CCCCC2)[C@@H]1c1ccc(CO)cc1 please. 1

Same question for CCCC[C@@H](O)C1=C(COC)C[C@H]2C(=O)N(C)C(=O)[C@H]2[C@H]1CO please. 2

Same question for COc1ccc([Si](C)(C)[C@H]2[C@H](CC(=O)N3CCC[C@H]3CO)O[C@@]3(C(=O)N(Cc4ccc(N5CCOC5=O)cc4)c4ccccc43)[C@@H]2C)cc1 please. 2

Same question for Cc1ccc(S[C@]2(C(=O)NCC(F)(F)F)CC(=O)N(Cc3cc(C(F)(F)F)cc(C(F)(F)F)c3)[C@@H]2c2ccc(CO)cc2I)cc1 please. 1

Same question for CCCNC(=O)[C@@H]1c2ccccc2C(=O)N(Cc2ccc(OC(F)(F)F)cc2)[C@H]1c1ccc(CO)cc1 please. 2

Same question for O=C1OCCC=C[C@H]2OC34C=CCN(c5ccc6ccccc6c5)C(=O)[C@H]3N(CCCO)C(=O)[C@@H]4C12 (stereo not given in full) please. 1

====

assayed-target: Concanavalin-A (Canavalia ensiformis)
protocol-summary: compounds binding concanavalin A lectin – biochemical, small-molecule microarray, Alexa647 label, 635 nm, artefact control for SMM control protein annotation, primary screen (AID 1127);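 further: z combines 667 nm emission intensity with signal-to-noise across three replicate slides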
reported-conditions: ConA-A647 binding fluorescence, higher = more signal
# composite z-score per entry
Please give only the number in your answer, with no unit.

As a guide, the following entries are already answered.
given-smiles: COCCOC(=O)N1C(=O)[C@@]2(c3cc(C#CCCO)ccc31)[C@H](c1ccc(OCCO)cc1)N1[C@H](c3ccccc3)[C@H](c3ccccc3)OC(=O)[C@H]1[C@@H]2C(=O)Nc1nc2ccccc2s1
composite z-score: 1.13
--
given-smiles: Cc1ccc(S[C@]2(C(=O)NCC(F)(F)F)CC(=O)N(Cc3cc(C(F)(F)F)cc(C(F)(F)F)c3)[C@@H]2c2ccc(CO)cc2I)cc1
composite z-score: -0.41

Would you kindly look at the next entry?
What does the record list as composite z-score for [N-]=[N+]=NCc1ccccc1[C@@H]1OC(c2ccc(OCCCO)cc2)=N[C@]1(CCS(=O)(=O)c1ccccc1)C(=O)O ? 0.448

Origin of the recorded values: PubChem BioAssay
